The entries below are paired with their reported Biochem EGFR % Inhibition (P.167).
target: EGFR (Homo sapiens); construct: endogenous in cells; host or cells: A431 cells (lysate, captured with SUMO1 anti-EGFR antibody); assay: Biochemical EGFR Assay; parameters: concentration or dose not given beside the values
Provide the reading as a plain figure in %.

Some solved entries appear below for comparison.
COc1ccc(C=C2C(=O)Nc3c(Br)cc(Br)c(C)c32)c(OC)c1OC [10730/H02] :: 12.6
Cc1c(Br)cc(Br)c2c1C(=Cc1c(F)cccc1F)C(=O)N2 [10735/H08] :: 6.8

Switching to the query record.
Which Biochem EGFR % Inhibition (P.167) reading was recorded for the compound Cc1c(Br)cc(Br)c2c1C(=Cc1csc([N+](=O)[O-])c1)C(=O)N2 [10722/H09] ?
−7.4

###

The entries below are paired with their reported Flk Kinase % Inhibition (P.110).
tested on: FLK-1 receptor; experiment: FLK-1 Assay (cellular/catalytic ELISA, VEGF-stimulated phosphotyrosine); type: cell-based; design: concentration or dose not given beside the values; settings: protocol P.110
Provide the reading as a plain figure in %.

Some solved entries appear below for comparison.
Cc1[nH]c2ccccc2c1C=C1C(=O)Nc2c(Br)cc(Br)cc21 :: −18.3
COc1ccccc1C=C1C(=O)Nc2ccc(I)cc21 :: −6.2
CNS(=O)(=O)c1ccc2c(c1)C(=Cc1ccc(Oc3ccccc3)cc1)C(=O)N2 :: 13.9
O=C1Nc2ccc(S(=O)(=O)N3CCOCC3)cc2C1=Cc1cc(Br)cs1 :: 10.0
Cc1c(Br)ccc2c1C(=Cc1ccc(Cl)c(Cl)c1)C(=O)N2 :: −7.4

Which Flk Kinase % Inhibition (P.110) reading was recorded for the molecule O=C1Nc2c(Br)cc(Br)cc2C1=Cc1ccc(CO)o1 ?
3.9

###

target: EGFR (Homo sapiens, UniProt P00533); construct: endogenous in cells; host or cells: A431 cells (lysate, captured with SUMO1 anti-EGFR antibody); assay: Biochemical EGFR Assay; parameters: concentration or dose not given beside the values
Sequence (P00533 25-1210): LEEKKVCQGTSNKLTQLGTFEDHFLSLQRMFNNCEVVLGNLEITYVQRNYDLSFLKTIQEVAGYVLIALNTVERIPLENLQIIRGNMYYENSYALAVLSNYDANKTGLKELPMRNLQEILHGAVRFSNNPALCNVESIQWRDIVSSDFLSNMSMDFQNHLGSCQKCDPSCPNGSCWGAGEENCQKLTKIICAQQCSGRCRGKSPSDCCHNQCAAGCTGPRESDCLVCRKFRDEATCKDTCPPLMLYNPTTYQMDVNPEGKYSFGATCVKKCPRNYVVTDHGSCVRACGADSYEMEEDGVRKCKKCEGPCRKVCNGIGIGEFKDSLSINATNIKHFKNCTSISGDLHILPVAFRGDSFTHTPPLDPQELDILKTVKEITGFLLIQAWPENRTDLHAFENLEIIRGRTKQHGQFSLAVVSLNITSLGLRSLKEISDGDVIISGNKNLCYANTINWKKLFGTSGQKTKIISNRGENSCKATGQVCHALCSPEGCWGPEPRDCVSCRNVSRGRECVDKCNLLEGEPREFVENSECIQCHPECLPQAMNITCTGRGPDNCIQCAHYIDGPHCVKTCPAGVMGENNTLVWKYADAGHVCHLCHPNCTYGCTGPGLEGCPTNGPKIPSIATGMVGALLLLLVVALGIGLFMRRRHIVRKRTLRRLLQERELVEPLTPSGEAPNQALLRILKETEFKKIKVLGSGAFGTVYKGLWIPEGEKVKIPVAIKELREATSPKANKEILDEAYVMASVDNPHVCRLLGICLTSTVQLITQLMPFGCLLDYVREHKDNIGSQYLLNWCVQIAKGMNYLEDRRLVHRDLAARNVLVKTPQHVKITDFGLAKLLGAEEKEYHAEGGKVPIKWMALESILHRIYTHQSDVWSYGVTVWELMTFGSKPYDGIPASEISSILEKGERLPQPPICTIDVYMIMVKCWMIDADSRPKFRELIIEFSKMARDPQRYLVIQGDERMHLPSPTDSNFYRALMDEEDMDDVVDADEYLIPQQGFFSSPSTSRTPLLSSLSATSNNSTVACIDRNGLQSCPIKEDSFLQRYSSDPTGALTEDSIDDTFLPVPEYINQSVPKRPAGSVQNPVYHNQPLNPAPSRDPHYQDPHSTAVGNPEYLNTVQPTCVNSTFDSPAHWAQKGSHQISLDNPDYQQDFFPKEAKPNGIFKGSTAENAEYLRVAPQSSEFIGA
property_label: Biochem EGFR % Inhibition (P.167) (%)
Provide the reading as a plain figure in %.

Some solved entries appear below for comparison.
COc1cccc(C=C2C(=O)Nc3ccc(S(=O)(=O)N4CCOCC4)cc32)c1 :: −0.7
O=C1Nc2ccc(S(=O)(=O)N3CCOCC3)cc2C1=Cc1cc(Br)cc(Br)c1O :: 33.7
CNS(=O)(=O)c1ccc2c(c1)C(=Cc1cccc(Cl)c1)C(=O)N2 :: 29.7
CSc1ccc(C=C2C(=O)Nc3c(Br)cc(Br)c(C)c32)cc1 :: −4.4

Which Biochem EGFR % Inhibition (P.167) reading was recorded for the compound CNS(=O)(=O)c1ccc2c(c1)C(=Cc1cc(F)cc(F)c1)C(=O)N2 ?
3.8

Which Biochem EGFR % Inhibition (P.167) reading was recorded for the compound O=C1Nc2ccc(S(=O)(=O)N3CCOCC3)cc2C1=Cc1cccc(C(F)(F)F)c1 ?
5.5

Which Biochem EGFR % Inhibition (P.167) reading was recorded for the compound CNS(=O)(=O)c1ccc2c(c1)C(=Cc1cccc(OC)c1)C(=O)N2 ?
10.5

Which Biochem EGFR % Inhibition (P.167) reading was recorded for the compound O=C1Nc2c(Br)cc(Br)cc2C1=Cc1c(F)cccc1F ?
10.9

Which Biochem EGFR % Inhibition (P.167) reading was recorded for the compound O=C1Nc2ccc(S(=O)(=O)N3CCOCC3)cc2C1=Cc1ccccc1C(F)(F)F ?
94.0

Which Biochem EGFR % Inhibition (P.167) reading was recorded for the compound O=C1Nc2ccc(S(=O)(=O)Nc3ccc(C(F)(F)F)cc3)cc2C1=Cc1cc(Cl)cc(Cl)c1O ?
55.0
